biological target: α4β1 integrin (Jurkat cell adhesion to immobilized CS-1 derived peptide CLHPGEILDVPST) (Homo sapiens, UniProt P05556+P13612); construct: 100 μl of Jurkat cells (2.5×10^6 cells/ml) in DMEM plus BSA; assay: Jurkat-CS-1 assay; conditions: Jurkat cells on CS-1 peptide coated plates; read-out: JK/CS-1 (Jurkat CS-1 Assay IC50 value range)
Sequence (P13612 34-1032): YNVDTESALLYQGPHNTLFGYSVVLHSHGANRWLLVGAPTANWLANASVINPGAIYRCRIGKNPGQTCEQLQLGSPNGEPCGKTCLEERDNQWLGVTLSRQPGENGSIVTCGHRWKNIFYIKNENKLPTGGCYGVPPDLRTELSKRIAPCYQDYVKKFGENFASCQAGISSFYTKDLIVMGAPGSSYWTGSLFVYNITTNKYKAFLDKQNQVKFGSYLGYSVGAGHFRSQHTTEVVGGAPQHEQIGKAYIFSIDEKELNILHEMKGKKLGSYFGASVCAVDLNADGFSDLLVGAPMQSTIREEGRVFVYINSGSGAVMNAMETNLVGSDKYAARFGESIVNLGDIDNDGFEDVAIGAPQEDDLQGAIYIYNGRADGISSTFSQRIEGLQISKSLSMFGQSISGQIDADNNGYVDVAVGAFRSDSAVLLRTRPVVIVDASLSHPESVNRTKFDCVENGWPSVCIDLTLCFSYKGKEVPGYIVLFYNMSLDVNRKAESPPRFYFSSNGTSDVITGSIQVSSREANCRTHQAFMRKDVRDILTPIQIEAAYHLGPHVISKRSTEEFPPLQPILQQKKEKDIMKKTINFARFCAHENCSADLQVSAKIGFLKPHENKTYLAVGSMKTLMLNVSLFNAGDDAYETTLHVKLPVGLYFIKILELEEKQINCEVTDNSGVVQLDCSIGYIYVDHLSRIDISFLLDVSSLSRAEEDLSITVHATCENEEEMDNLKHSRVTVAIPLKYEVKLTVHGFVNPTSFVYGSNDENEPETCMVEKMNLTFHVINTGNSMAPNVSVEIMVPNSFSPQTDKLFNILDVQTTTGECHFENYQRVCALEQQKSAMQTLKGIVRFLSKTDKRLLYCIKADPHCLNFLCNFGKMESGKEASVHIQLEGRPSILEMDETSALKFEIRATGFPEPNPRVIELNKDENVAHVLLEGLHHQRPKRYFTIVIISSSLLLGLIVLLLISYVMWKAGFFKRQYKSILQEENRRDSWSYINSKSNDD
Sequence (P05556 21-798): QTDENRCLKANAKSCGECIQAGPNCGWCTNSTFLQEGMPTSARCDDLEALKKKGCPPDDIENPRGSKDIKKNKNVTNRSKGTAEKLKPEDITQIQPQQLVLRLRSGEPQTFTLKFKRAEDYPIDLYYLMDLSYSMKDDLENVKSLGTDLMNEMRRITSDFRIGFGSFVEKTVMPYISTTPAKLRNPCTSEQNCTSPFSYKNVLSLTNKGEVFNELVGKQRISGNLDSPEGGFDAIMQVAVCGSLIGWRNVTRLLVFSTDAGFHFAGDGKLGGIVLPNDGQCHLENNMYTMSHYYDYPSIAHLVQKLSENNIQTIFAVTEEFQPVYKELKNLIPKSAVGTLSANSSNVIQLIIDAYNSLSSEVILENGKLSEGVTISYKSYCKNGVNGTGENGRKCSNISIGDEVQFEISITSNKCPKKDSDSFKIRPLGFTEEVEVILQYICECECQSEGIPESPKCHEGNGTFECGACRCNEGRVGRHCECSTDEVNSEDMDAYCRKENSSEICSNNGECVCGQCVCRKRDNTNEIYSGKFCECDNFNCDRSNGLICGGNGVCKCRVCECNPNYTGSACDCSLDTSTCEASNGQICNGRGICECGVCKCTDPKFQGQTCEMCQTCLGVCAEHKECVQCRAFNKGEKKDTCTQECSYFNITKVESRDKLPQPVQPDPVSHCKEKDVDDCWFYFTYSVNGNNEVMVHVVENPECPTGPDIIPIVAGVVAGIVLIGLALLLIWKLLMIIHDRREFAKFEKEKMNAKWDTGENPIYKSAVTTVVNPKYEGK
Entries and their IC50 values follow.

Sample records with IC50:
COMPOUND	ENDPOINT_NAME	OBSERVED
O=C(O)c1cccc(C(=O)N2CCC[C@@H]2C(=O)N[C@@H](Cc2ccc(NC(=O)c3c(Cl)cccc3Cl)cc2)C(=O)O)n1	IC50	≤ 50 nM
CC(=O)N1[C@@H](C(=O)N[C@@H](Cc2ccc(NC(=O)c3c(Cl)cccc3Cl)cc2)C(=O)O)CSC1(C)C	IC50	≤ 50 nM
O=C(Nc1ccc(C[C@H](NC(=O)[C@H]2CCCCN2C(=O)C2CCCO2)C(=O)O)cc1)c1c(Cl)cccc1Cl (stereo partly shown)	IC50	50 to 750 nM
CCOC(=O)N1[C@@H](C(=O)N[C@@H](Cc2ccc(NC(=O)c3c(Cl)cccc3Cl)cc2)C(=O)O)C(C)(C)SC1(C)C (relative stereo)	IC50	50 to 750 nM
CCOC(=O)N1CSC[C@@H]1C(=O)N[C@@H](Cc1ccc(NC(=O)c2c(Cl)cccc2Cl)cc1)C(=O)OC (relative stereo)	IC50	≤ 50 nM
COCCC(=O)N1CCC[C@@H]1C(=O)N[C@@H](Cc1ccc(NC(=O)c2c(Cl)cccc2Cl)cc1)C(=O)O	IC50	≤ 50 nM

**Q:** Given the entry O=C(O)c1cccc(C(=O)N2CCCC[C@@H]2C(=O)N[C@@H](Cc2ccc(NC(=O)c3c(Cl)cccc3Cl)cc2)C(=O)O)n1 , report its measured IC50.
**A:** ≤ 50 nM

**Q:** Next record, please: O=C(O)/C=C/C(=O)N1CCCC[C@@H]1C(=O)N[C@@H](Cc1ccc(NC(=O)c2c(Cl)cccc2Cl)cc1)C(=O)O
**A:** 50 to 750 nM

====

Entries and their IC50 values follow.
molecular target: α4β1 integrin (Jurkat cell adhesion to immobilized CS-1 derived peptide CLHPGEILDVPST) (Homo sapiens, UniProt P05556+P13612); construct: 100 μl of Jurkat cells (2.5×10^6 cells/ml) in DMEM plus BSA; experiment: Jurkat-CS-1 assay; conditions: Jurkat cells on CS-1 peptide coated plates; read-out: JK/CS-1 (Jurkat CS-1 Assay IC50 value range)

Sample records with IC50:
COMPOUND	OBSERVED
O=C(Nc1ccc(C[C@H](NC(=O)[C@@H]2CSCN2C(=O)C2CCOC2)C(=O)O)cc1)c1c(Cl)cccc1Cl (stereo partly drawn)	50 to 750 nM
COC(=O)[C@H](Cc1ccc(NC(=O)c2c(Cl)cccc2Cl)cc1)NC(=O)[C@H]1CSCN1S(=O)(=O)c1ccccc1	≥ 750 nM

Moving on to the next compound.
**Q:** Given the entry O=C(O)c1cncc(C(=O)N2CCC[C@H]2C(=O)N[C@@H](Cc2ccc(NC(=O)c3c(Cl)cccc3Cl)cc2)C(=O)O)c1 , report its measured IC50.
**A:** 50 to 750 nM

====

molecular target: α4β1 integrin (Jurkat cell adhesion to immobilized CS-1 derived peptide CLHPGEILDVPST) (Homo sapiens, UniProt P05556+P13612); construct: 100 μl of Jurkat cells (2.5×10^6 cells/ml) in DMEM plus BSA; assay: Jurkat-CS-1 assay; details: Jurkat cells on CS-1 peptide coated plates; read-out: JK/CS-1 (Jurkat CS-1 Assay IC50 value range)
ENDPOINT_NAME: IC50

Sample records with IC50:
COMPOUND	IC50
CCOC(=O)N1CSC[C@@H]1C(=O)N[C@@H](Cc1ccc(NS(=O)(=O)c2cc(Cl)ccc2Cl)cc1)C(=O)O [Example 276]	≥ 750 nM
CC(=O)CCC(=O)N1CCC(C(=O)N[C@@H](Cc2ccc(NC(=O)c3c(Cl)cccc3Cl)cc2)C(=O)O)CC1 [Example 216]	50 to 750 nM
O=C(Nc1ccc(C[C@H](NC(=O)[C@@H]2COCN2C(=O)OCc2ccccc2)C(=O)O)cc1)c1c(Cl)cccc1Cl [Example 125]	50 to 750 nM

**Q:** Given the entry CS(=O)(=O)N1CSC[C@@H]1C(=O)N[C@@H](Cc1ccc(OCc2c(Cl)cccc2Cl)cc1)C(=O)O [Example 51] , report its measured IC50.
**A:** 50 to 750 nM

**Q:** Next record, please: CCN(CC)C(=O)N1CSC[C@@H]1C(=O)N[C@@H](Cc1ccc(NC(=O)c2c(Cl)cccc2Cl)cc1)C(=O)O [Example 53]
**A:** ≤ 50 nM

**Q:** Next record, please: O=C(Nc1ccc(C[C@H](NC(=O)[C@@H]2CSCN2C(=O)c2cccnc2)C(=O)O)cc1)c1c(Cl)cccc1Cl [Example 239]
**A:** 50 to 750 nM

**Q:** Next record, please: COC(=O)[C@H](Cc1ccc(NC(=O)c2c(Cl)cccc2Cl)cc1)NC(=O)[C@@H]1COCN1C(=O)OCc1ccccc1 [Example 124]
**A:** ≥ 750 nM
